Tested on: MCF7 breast
procedure_text: NCI tumour cell line growth inhibition, 48 h
measurement_kind: TGI

- O=C1C[C@@H](c2ccccc2)O[C@@H](c2ccccc2)C1: > 100 µM
- Cc1ccc(C2=Nc3ccccc3SC(c3cccc([N+](=O)[O-])c3)C2)cc1 (stereo not given): > 100 µM
- COc1ccc2oc(=N)c(C(=O)Nc3ccccn3)cc2c1: > 100 µM
- O=[As](O)(O)c1ccc(N=Nc2ccc(O)cc2)cc1: > 100 µM
- Cc1cccc(NC(=O)c2sc3nc4c(cc3c2N)CN(Cc2ccccc2)CC4)c1C: > 50 µM
- Brc1ccc(-c2cn3ccncc3n2)cc1: > 100 µM
- CCn1c2ccccc2c2cc(/C=C(/C#N)C(N)=O)ccc21: > 47.3 µM
- Cc1ccc2nc(NC(=O)/C(Cc3nc4ccc(Cl)cc4[nH]c3=O)=N\NC(C)(C)C)sc2c1: > 100 µM
- COc1cc([C@@H]2c3cc(O)c(OC)cc3C=C(C(N)=O)[C@H]2C(N)=O)ccc1O: > 100 µM
- COC(=O)c1c(OC(C)=O)ccc2c1c1c(OC(C)=O)c3ccccc3c(OC(C)=O)c1n2Cc1ccccc1: > 50 µM
